Measured GI50, listed per entry for reference.
- Test system: MDA-N
- Test method notes: NCI tumour cell line growth inhibition, 48 h
Active and inactive are the calls of the source. Rule as the data show it: active = GI50 up to about 1.1 µM and inactive = higher.

Compound	GI50
NC(Cc1ccc(CP(=O)(O)O)cc1)C(=O)O (stereo not drawn)	> 100 µM (inactive)
Cn1ncc(NCCn2cnc3c2c(=O)n(C)c(=O)n3C)c(Cl)c1=O	> 100 µM (inactive)
CC1OC(OC2C(O[C@@H]3C[C@@H]4CC[C@@H]5[C@H](CC[C@]6(C)[C@@H]7[C@H](C[C@@H]56)O[C@]5(CC[C@@H](C)CO5)[C@H]7C)[C@@]4(C)C[C@H]3O)OC(CO)C(OC3OC(CO)C(O)C(O)C3O)C2O)C(O)C(O)C1O (stereo partly drawn)	1.91 µM (inactive)

----------
- System: LXFL 529
- Test method notes: NCI tumour cell line growth inhibition, 48 h
The source made the active and inactive calls. Rule as the data show it: active = GI50 up to about 1.1 µM and inactive = higher.
Measured GI50, listed per entry for reference.
Endpoint label: GI50

Compound	Target	Endpoint label	Result
COC(c1cccc(C(O)(C(F)(F)F)C(F)(F)F)c1)(C(F)(F)F)C(F)(F)F	LXFL 529	GI50	17.5 µM (inactive)
COc1cc2c(cc1OC)C(Cl)C(c1ccc(Cl)cc1)=C2Cl (centres undefined)	LXFL 529	GI50	4.23 µM (inactive)
Cc1ccccc1NC(=O)CSc1nnc(-c2ccc(/N=C\c3ccc(Cl)cc3)cc2)o1	LXFL 529	GI50	> 100 µM (inactive)
C[P+]1(c2ccccc2)CCCCC1	LXFL 529	GI50	> 100 µM (inactive)
C(=N\OCc1ccccc1)/c1ncccc1C1OCCO1	LXFL 529	GI50	> 100 µM (inactive)
O=C1/C(=C/c2ccccc2)CN(C(=O)Oc2ccc(Cl)cc2)C/C1=C\c1ccccc1	LXFL 529	GI50	1.72 µM (inactive)
CCOc1cccc2nc3cccc(C(=O)NCCN(C)C)c3nc12	LXFL 529	GI50	1.79 µM (inactive)
C[n+]1ccn2c3nc4ccccc4nc3c([O-])c(C#N)c21	LXFL 529	GI50	> 100 µM (inactive)
CCOc1c(Cc2ccccc2)c(=O)n2c3ccccc3n3c(=O)n(C)c(=O)c1c23	LXFL 529	GI50	> 100 µM (inactive)
Cc1ccc(NC(=O)SCCC(=O)O)cc1NC(=O)SCCC(=O)O	LXFL 529	GI50	> 100 µM (inactive)
O=c1[nH]cc(COCC(F)(F)C(F)(F)C(F)(F)C(F)F)c(=O)[nH]1	LXFL 529	GI50	> 100 µM (inactive)
CN(C)c1ccc(/C=C/C(=O)O)cc1	LXFL 529	GI50	> 100 µM (inactive)
COC(=O)NN1C(C)=C(C(=O)OC)C2(C#N)C(C(=O)OC)=C(C)N(NC(=O)OC)C12N (centres undefined)	LXFL 529	GI50	> 100 µM (inactive)
Cn1c(=O)nc2n(-c3ccc(Br)cc3)c3ccccc3nc-2c1=O	LXFL 529	GI50	12.2 µM (inactive)

----------
- Tested on: SNB-75
- Test method notes: NCI tumour cell line growth inhibition, 48 h
Activity calls are given as the source filed them. No stated cut-off is given here; in the data, active = GI50 up to about 1.1 µM and inactive = higher.

Molecule	GI50
COc1cc(OC)c2c(c1)C(=O)C(CC1(C)OCCCO1)=CC2=O	11 µM (inactive)
CC(=O)OCC1(CNc2nc(N)ncc2C#N)CC(CCc2ccccc2)C1 (centres undefined)	27.4 µM (inactive)
CCCCCCCCCCCCOCCCCCCCCC/C=C/c1ccc2c(c1)OCCOCCOCCOCCO2	16.4 µM (inactive)
CCN(CC)CCCNc1n[n+]([O-])c2ccccc2[n+]1[O-]	23.1 µM (inactive)

----------
Measured GI50, listed per entry for reference.
- Tested on: HL-60
- Test method notes: NCI tumour cell line growth inhibition, 48 h
The source made the active and inactive calls. Rule as the data show it: active = GI50 up to about 1.1 µM and inactive = higher.
Endpoint label: GI50

Molecule	Result
Cc1ccc(C2(c3ccc(Cl)cc3)c3ccccc3C3=NCCN32)cc1 (stereo not drawn)	6.79 µM (inactive)
CC1OC(OC2C(O[C@H]3CC[C@@]4(C)C(=CC[C@H]5[C@@H]6C[C@@H]7O[C@]8(CC[C@@H](CO)CO8)[C@@H](C)[C@@H]7[C@@]6(C)CC[C@@H]54)C3)OC(CO)C(O)C2OC2OC(CO)C(O)C(O)C2O)C(O)C(O)C1O (stereo partly drawn)	1.44 µM (inactive)
COc1cc(CC(C)NC(C)=O)cc(OC)c1 (stereo not drawn)	> 100 µM (inactive)

----------
Measured GI50, listed per entry for reference.
- System: U-251
- Test method notes: NCI tumour cell line growth inhibition, 48 h
Activity calls are given as the source filed them. Rule as the data show it: active = GI50 up to about 1.1 µM and inactive = higher.

Molecule	GI50
CCCCCCCC(=O)OC[n+]1cccc(-c2c(COC(=O)NC(C)C)c(COC(=O)NC(C)C)c3n2CCC3)c1	> 72.8 µM (inactive)
Cc1nc(O)nc(N/N=C/c2ccc(Cl)cc2)c1C(=O)NC(C)(CO)CO	> 100 µM (inactive)
CC(O)/C=C/C(CCC(C)CO)C(C)C (centres undefined)	> 100 µM (inactive)
CC(Cc1ccc(Cl)cc1Cl)NO (centres undefined)	> 100 µM (inactive)

----------
- Test system: UO-31
- Test method notes: NCI tumour cell line growth inhibition, 48 h
The source made the active and inactive calls. Cut-off read from the data, not from the text of the source: active = GI50 up to about 1.1 µM and inactive = higher.
Labels: true (1) for active, false (0) for inactive

Compound	Qualitative label
O=C1c2ccccc2CC1C1(O)C(=O)Nc2c(Cl)cc(Cl)cc21 (stereo not given)	false (0)
CC(=O)OC(OC(C)=O)c1c2ccccc2cc2ccccc12	false (0)
NC12c3c4cccc3Oc3cccc(c31)Oc1cccc(c12)O4	false (0)
CCN1C[C@]2(C)CC[C@H](OC)C34C5C[C@@H]6[C@@H](OC)C[C@@](OC)(C5[C@H]6OCc5ccccc5)C(C13)[C@H](OC(C)=O)[C@@H]42 (stereo not given in full)	false (0)
Cc1ccc(Cc2n[nH]c(=O)[nH]2)cc1	false (0)
Oc1c(CN2CCOCC2)ccc(CN2CCOCC2)c1O	false (0)
Cc1ccc(Oc2ccccc2N)cc1	false (0)
O=C1OC[C@H]2[C@@H]1[C@H]1O[C@@H]2C2=C(CCC2)C1=O	false (0)
Cc1cc(C)n(C2OC(CO)C(O)C(O)C2O)c(=S)c1C#N (stereo not given)	false (0)
CC(C)C[S+]1C2=C(CC(C)(C)CC2=O)[N-]c2ccccc21 (stereo not given)	false (0)
C=C1CCCC2OC(OC)CCC12 (stereo not given)	false (0)
CCSc1nc(C)nc2c1sc1nc3ccccc3n12	false (0)
O=C(Nc1nc(C23CC4CC(CC(C4)C2)C3)cs1)c1cc2cc([N+](=O)[O-])ccc2oc1=O	false (0)
Cc1[nH]n(-c2nc(-c3ccccc3)cc(=O)[nH]2)c(=O)c1CCO	false (0)
COc1ccc(OC)c2c(C(C)=O)cccc12	false (0)
COc1cc(C2C3=C(COC3=O)Oc3cc4c(cc32)OCO4)ccc1O (stereo not given)	true (1)
O[C@]12C=C(c3nccc4c3[nH]c3ccccc34)[C@@H]3CCN(CCCC/C=C\CC1)C[C@@]31CC3/C=C\CCCCN3[C@H]12 (stereo not given in full)	true (1)
Nc1nc(SCC(=O)O)nc(O)c1N	false (0)
Cc1ccc(SCN2CCCCC2)cc1.O=C(Cl)c1ccc([N+](=O)[O-])cc1	false (0)
COC(=O)NN1C(C)=C(C(=O)OC)C2(C#N)C(C(=O)OC)=C(C)N(NC(=O)OC)C12N (stereo not given)	false (0)
Cc1ccc(C[N+](C)(C)N)cc1C	false (0)
CC(=O)N1C(=O)c2cc3ccccc3cc21	false (0)
CC(=O)N(CN1C(=O)CCC1C(=O)O)c1ccccc1Cl (stereo not given)	false (0)
NC(=S)Nc1nc(=S)[nH]c2c1SC1=N/C(=C\c3ccco3)C(=O)N12	false (0)
C[n+]1ccn2c3nc4ccccc4nc3c([O-])c(C#N)c21	false (0)
COc1cc(OC)c2c(c1)C(=O)C(CC1(C)OCCCO1)=CC2=O	false (0)
CCCCCCCCCCOC1C(C(C)OCCCN(C)C)OC2OC3(CCCCC3)OC21 (stereo not given)	false (0)
O=C(CSSCC(=O)Nc1ccc(Br)cc1)Nc1ccc(Br)cc1	false (0)
Clc1ccc(SCCSCCCCCCCCCCSCCSc2ccc(Cl)cc2)cc1	false (0)
COc1ccc2c(O)c1-c1c(OC)ccc(c1O)SSc1ccc(OC)c(c1O)-c1c(OC)ccc(c1O)SS2	false (0)
Cc1[nH]c2ccccc2c1CC/C(=N\Nc1ccccc1)c1ccccc1	false (0)
c1ccc2c(c1)-c1ccccc1C2N1CC2CCC(CC2)C1	false (0)
CCCCCCCCCOC(=S)NCCCCC	false (0)
CC1OC(O)CC(N(C)C)C1O.CC1OC(O)CCC1O.CCC1CC(O)c2c(O)c3c(c(O)c2C1O)C(=O)c1cccc(O)c1C3=O (stereo not given)	true (1)
CCCCC#C[I+]c1ccccc1	false (0)

----------
Measured GI50, listed per entry for reference.
- Tested on: 786-0
- Test method notes: NCI tumour cell line growth inhibition, 48 h
The source made the active and inactive calls. Rule as the data show it: active = GI50 up to about 1.1 µM and inactive = higher.

Compound	GI50
N=C(N)N/N=C(/CCN1CCCC1)CC(c1ccccc1)c1c(O)c2ccccc2oc1=O (stereo not drawn)	> 100 µM (inactive)
COc1ccc2c(O)c1-c1c(OC)ccc(c1O)SSc1ccc(OC)c(c1O)-c1c(OC)ccc(c1O)SS2	40.6 µM (inactive)
N#CC(C(=O)C(=O)Nc1ccc(Cl)c(Cl)c1)c1ccc(Cl)cc1 (stereo not drawn)	41 µM (inactive)
CC1=CC(=O)c2ccc(C)cc2C1=O [CHIMAPHILIN]	19.7 µM (inactive)
CC(=O)Nc1ccc(C(=O)NN2C(=O)C(Cl)C2c2cc(Br)cc(Br)c2O)cc1 (stereo not drawn)	> 100 µM (inactive)
CCOc1c(Cc2ccccc2)c(=O)n2c3ccccc3n3c(=O)n(C)c(=O)c1c23	> 100 µM (inactive)
CCC1CC(=O)N(SCC(N)C(=O)O)C1=O (stereo not drawn)	> 100 µM (inactive)
Cc1ccc(NC(=O)SCCC(=O)O)cc1NC(=O)SCCC(=O)O	> 100 µM (inactive)
C=C(COC(=O)C(C)C)[C@H]1Oc2ccc(C(C)=O)cc2[C@@H]1OC(=O)C(C)C	> 100 µM (inactive)
Oc1cc(-c2cccc(Br)c2)nc2cc3c(cc12)OCO3	3.52 µM (inactive)
C/C(=N\c1cc(Cl)cc(Cl)c1)c1ccncc1	> 100 µM (inactive)
CCN(CCO)CC1COc2ccccc2O1 (stereo not drawn)	> 100 µM (inactive)
O=C1CC2(CCNCC2)C(=O)N1N1CCCCC1	> 100 µM (inactive)
CC(C)(C)OC(=O)NCCC(N)=S	> 100 µM (inactive)
CC(=O)N1C(=O)c2cc3ccccc3cc21	> 100 µM (inactive)
CC1(C)S[C@@H]2[C@H](NC(=O)C3(N)CCCCC3)C(=O)N2[C@H]1C(=O)O [CYCLACILLIN]	> 100 µM (inactive)
CC(C)(C)OC(=O)NC(Cc1ccc([N+](=O)[O-])cc1)C(=O)NC(CCCCNC(=O)OCc1ccccc1)C(=O)ON1C(=O)CCC1=O (stereo not drawn)	> 100 µM (inactive)
Nc1nc(=O)c(/N=N/c2ccc([As](=O)(O)O)cc2)c(N)[nH]1	> 100 µM (inactive)
